Target: HLA-B60 on HLA typed EBV-LCLs (human)
Test: cell-based competition on acid-treated EBV-LCLs against 150 nM fluorescent reference peptide, flow cytometry
assayMetric: pIC50
API: returns pIC50 as number; meaning -log10 of concentration in mol/L.

Find the recorded pIC50 belonging to KECVLRDDL (synthetic peptide; also called Peptide No. 8) [nonameric HA-1^R peptide KECVLRDDL] and report it.
5.41
